Let's look at some log10 IC50 data for SIK3 (Homo sapiens) that I collected from the literature.
Note the log scale: values are log10 of IC50 expressed in nM.

Example entries begin here.
Cc1ccc(Nc2ccc3ncn(-c4ccc(C(C)O)c(-n5ncc(C#N)c5C)n4)c3c2)nn1 (stereo not shown)    1.53
COc1cc2ncn(-c3ccc(C(C)O)c(-n4nc(C#N)cc4C)n3)c2cc1Nc1ccc(C)nn1 (stereo not shown)    2.24
Cc1ncc(Nc2ccc3c(c2)ncn3-c2ccc(C(C)O)c(-n3nc(C#N)cc3C)n2)cn1 (stereo not shown)    0.18
COc1cc2ncn(-c3ccc(C(N)=O)c(Oc4ccccc4Cl)n3)c2cc1OC    1.76
Cc1cc(C#N)nn1-c1nc(-n2cnc3cc(N4CCCC4C(=O)N(C)C)ccc32)ccc1C(C)O (stereo not shown)    1.93
Cc1ccc(Nc2ccc3c(c2)ncn3-c2ccc(C(C)O)c(N3CC[C@@H](C#N)C3)n2)nn1 (stereo partly shown)    2.37

Retrieve log10 IC50 on SIK3 (Homo sapiens); query COc1cc2ncn(-c3ccc(C(O)C4CC4)c(-c4ccc(F)cc4OC)n3)c2cc1OC (stereo not shown)
Sequence (Q9Y2K2 whole entry): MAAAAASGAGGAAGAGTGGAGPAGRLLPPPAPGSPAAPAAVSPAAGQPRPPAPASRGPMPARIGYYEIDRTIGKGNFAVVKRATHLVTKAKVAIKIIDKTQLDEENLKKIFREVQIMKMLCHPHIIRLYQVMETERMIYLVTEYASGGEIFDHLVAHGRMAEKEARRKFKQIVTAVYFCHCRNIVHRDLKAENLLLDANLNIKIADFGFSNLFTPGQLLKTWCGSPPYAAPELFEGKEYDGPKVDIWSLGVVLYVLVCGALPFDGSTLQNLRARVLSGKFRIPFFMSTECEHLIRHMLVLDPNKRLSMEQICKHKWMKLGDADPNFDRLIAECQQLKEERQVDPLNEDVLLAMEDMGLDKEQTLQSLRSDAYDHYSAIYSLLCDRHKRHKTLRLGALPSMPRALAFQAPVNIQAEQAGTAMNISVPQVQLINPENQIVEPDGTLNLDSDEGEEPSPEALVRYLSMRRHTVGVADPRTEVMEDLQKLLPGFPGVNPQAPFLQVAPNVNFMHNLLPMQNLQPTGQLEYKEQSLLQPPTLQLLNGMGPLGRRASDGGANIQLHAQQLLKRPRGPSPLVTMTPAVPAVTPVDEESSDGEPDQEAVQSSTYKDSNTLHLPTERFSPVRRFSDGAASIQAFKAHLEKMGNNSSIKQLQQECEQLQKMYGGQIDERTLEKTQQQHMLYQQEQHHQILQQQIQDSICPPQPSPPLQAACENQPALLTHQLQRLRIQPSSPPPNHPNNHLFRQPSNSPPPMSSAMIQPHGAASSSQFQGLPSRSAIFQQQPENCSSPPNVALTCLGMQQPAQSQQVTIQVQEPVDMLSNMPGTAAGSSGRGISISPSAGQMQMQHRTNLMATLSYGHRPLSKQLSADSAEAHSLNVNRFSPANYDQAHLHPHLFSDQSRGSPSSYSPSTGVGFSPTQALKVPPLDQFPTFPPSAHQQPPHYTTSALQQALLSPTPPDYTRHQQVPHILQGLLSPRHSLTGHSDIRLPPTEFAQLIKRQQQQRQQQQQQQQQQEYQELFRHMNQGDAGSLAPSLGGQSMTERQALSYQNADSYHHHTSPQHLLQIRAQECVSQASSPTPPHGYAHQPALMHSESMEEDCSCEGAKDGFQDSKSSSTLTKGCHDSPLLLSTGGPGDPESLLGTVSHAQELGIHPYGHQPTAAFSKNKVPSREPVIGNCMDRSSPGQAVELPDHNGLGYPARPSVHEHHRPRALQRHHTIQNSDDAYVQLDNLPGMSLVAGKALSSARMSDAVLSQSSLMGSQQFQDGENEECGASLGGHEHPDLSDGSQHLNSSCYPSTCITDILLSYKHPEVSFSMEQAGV
3.95

Provide log10 IC50, system SIK3 (Homo sapiens), entry Cc1nn(CC(F)(F)F)cc1-c1nc(-n2cnc3cc(Oc4ccc(CN5CCOCC5)nn4)ccc32)ccc1C(C)O (stereo not shown)
1.78

Param request: log10 IC50 | system SIK3 (Homo sapiens) | item COCC(O)c1ccc(-n2cnc3cc(Nc4ccc(C)nn4)ccc32)nc1-n1nc(C#N)cc1C (stereo not shown)
0.04

Give log10 IC50 only, for COc1cc2ncn(-c3ccc(C(O)C4CC4)c(-c4cccc(Cl)c4)n3)c2cc1OC (stereo not shown) , using SIK3 (Homo sapiens) data.
2.99

System SIK3 (Homo sapiens). Read-out log10 IC50. Item CCc1cc(-c2nc(-n3cnc4cc(Nc5ccc(C)nn5)ccc43)ccc2C(C)O)c(C)cn1 (stereo not shown) . Report value.
0.90

GET log10 IC50 where system = SIK3 (Homo sapiens) and item = Cc1cc(C#N)nn1-c1nc(-n2cnc3ccc(OC4CCN(C5COC5)CC4)cc32)ccc1C(C)O (stereo not shown)
2.78

System SIK3 (Homo sapiens). Read-out log10 IC50. Item CC[C@@H]1CCC[C@@]1(N)COc1cc(-c2cnc3cccc(C#N)n23)cc(SC)c1C#N (racemic) . Report value.
0.26

Using SIK3 (Homo sapiens) as the test system, report measured log10 IC50 of Cc1ccc(Nc2ccc3ncn(-c4ccc(C(C)O)c(-n5nc(C(F)(F)F)c6c5CCNC6)n4)c3c2)nn1 (stereo not shown) .
1.13

Write down the reported log10 IC50 (system: SIK3 (Homo sapiens)) of Cc1ccc(Nc2ccc3c(c2)ncn3-c2ccc(C(C)O)c(N3CCCS3(=O)=O)n2)nn1 (stereo not shown)
3.28

Provide log10 IC50, tested on SIK3 (Homo sapiens), for "CC(=O)c1ccc(-n2cnc3ccc(Nc4ccc(C)nn4)cc32)nc1-n1nc(C#N)cc1C" .
2.26

###

Let's look at some IC50 data for UniProt:Q9Y2K2 that I collected from the literature.
Please use fulfilled for IC50 under 6 nM and not fulfilled for everything else, ties included.

Examples with answers:
Cc1ccc(Nc2ccc3ncn(-c4ccc(C(C)O)c(N(C)CC5(C#N)CC5)n4)c3c2)nn1 (stereo not shown)    not fulfilled
Cc1ccc(Nc2ccc3c(c2)ncn3-c2ccc([C@@H](C)O)c(-n3nc(C(F)F)cc3C(F)F)n2)nn1    fulfilled
Cc1cc(C(F)F)nn1-c1nc(-n2cnc3cc(Nc4cccnn4)c(F)cc32)ccc1[C@H](C)O    fulfilled
COc1cc2ncn(-c3ccc([C@@H](C)O)c(-c4cccc(C#N)c4)n3)c2cc1OC    not fulfilled
Cc1ccc(Nc2ccc3c(c2)ncn3-c2ccc(C(N)=O)c(OC(C)C(F)F)n2)nn1 (stereo not shown)    fulfilled
COCC(O)c1ccc(-n2cnc3ccc(Nc4ccc(C)nn4)cc32)nc1-n1nc(C#N)cc1C (stereo not shown)    not fulfilled
Cc1cc(C#N)nn1-c1nc(-n2cnc3cc(Nc4cccnn4)ccc32)ccc1C(C)O (stereo not shown)    fulfilled
Cc1ccc(Nc2ccc3c(c2)ncn3-c2ccc(C(C)O)c(-c3cnn(CC(C)(F)F)c3C)n2)nn1 (stereo not shown)    fulfilled

In plain terms, does CCOc1cc(C)n(-c2nc(-n3cnc4cc(Nc5ccc(C)nn5)ccc43)ccc2C(C)O)n1 (stereo not shown) come in under 6 nM for IC50?
fulfilled

Say whether its IC50 is strictly beneath 6 nM. Entry: Cc1ccc(Nc2ccc3ncn(-c4ccc(C(C)O)c(-n5nc(C(F)F)cc5C)n4)c3c2)nn1 (stereo not shown)
not fulfilled

API: query returns whether the compound falls strictly under 6 nM in IC50. Query: Cc1ccc(Nc2ccc3c(c2)ncn3-c2ccc(C(C)O)c(N3CCC(C)(C#N)C3)n2)nn1 (stereo not shown)
fulfilled

Strictly below 6 nM: is that where IC50 of Cc1ccc(Nc2cc3c(cc2CC2COC2)ncn3-c2ccc(C(C)O)c(-n3nc(OC(F)F)cc3C)n2)nn1 (stereo not shown) sits?
not fulfilled

Strictly below 6 nM: is that where IC50 of "COc1cc2ncn(-c3ccc(CO)c(NCCCCCO)n3)c2cc1OC" sits?
not fulfilled

Please let me know if "CC(=O)c1ccc(-n2cnc3cc(Nc4ccc(C)nn4)ccc32)nc1-n1nc(C#N)cc1C" shows IC50 below 6 nM.
not fulfilled

Below 6 nM on IC50? Entry Cc1ccc(Nc2ccc3c(c2)ncn3-c2ccc(C(C)O)c(-n3nc(S(C)(=O)=O)cc3C)n2)nn1 (stereo not shown)
fulfilled

Could you please tell me whether IC50 recorded for "CCc1ccc2ncc(-c3cc(OCC4(N)CCCC4)c(C#N)c(SC)c3)n2c1C#N" is less than 6 nM?
fulfilled

# TODO verify IC50 < 6 nM strictly for this compound: Cc1cc(C#N)nn1-c1nc(-n2cnc3cc(Nc4cnn(C5CNC5)c4)ccc32)ccc1C(C)O (stereo not shown)
fulfilled

Please let me know if "Cc1ccc(Nc2ccc3c(c2)ncn3-c2ccc([C@@H](C)O)c(-n3nc(C(F)F)cc3C)n2)nn1" shows IC50 below 6 nM.
not fulfilled

# strict comparison: is reported IC50 < 6 nM? input = "Cc1ccc(Nc2cc3c(cc2F)ncn3-c2ccc(CO)c(-n3nc(C#N)cc3C)n2)nn1"
not fulfilled
